Recorded log10 IC50 by entry
Biological target: Amyloid-beta precursor protein (Homo sapiens)
Sequence (P05067 whole entry): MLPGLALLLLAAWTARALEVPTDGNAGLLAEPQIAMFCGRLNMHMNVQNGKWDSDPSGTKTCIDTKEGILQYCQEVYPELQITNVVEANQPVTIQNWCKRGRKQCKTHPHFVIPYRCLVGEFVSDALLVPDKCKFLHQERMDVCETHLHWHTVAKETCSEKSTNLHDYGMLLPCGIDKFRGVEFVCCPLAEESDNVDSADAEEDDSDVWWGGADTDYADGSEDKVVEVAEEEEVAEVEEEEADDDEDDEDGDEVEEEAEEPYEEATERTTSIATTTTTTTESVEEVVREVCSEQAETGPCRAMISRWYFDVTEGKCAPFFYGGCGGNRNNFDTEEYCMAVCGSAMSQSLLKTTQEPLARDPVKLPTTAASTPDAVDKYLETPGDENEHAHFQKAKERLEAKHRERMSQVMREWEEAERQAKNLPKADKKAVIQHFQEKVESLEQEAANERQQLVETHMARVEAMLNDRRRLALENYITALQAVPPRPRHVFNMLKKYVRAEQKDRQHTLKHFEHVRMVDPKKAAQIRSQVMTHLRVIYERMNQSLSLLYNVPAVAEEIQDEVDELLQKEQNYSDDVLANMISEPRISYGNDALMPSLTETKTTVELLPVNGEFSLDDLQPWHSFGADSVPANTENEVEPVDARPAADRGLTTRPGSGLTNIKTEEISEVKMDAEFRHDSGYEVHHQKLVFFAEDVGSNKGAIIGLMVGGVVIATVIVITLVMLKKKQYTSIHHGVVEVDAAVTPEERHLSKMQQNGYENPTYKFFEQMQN
Experiment: Inhibition of Abeta42 (unknown origin) aggregation measured after 24 hrs by ThT fluorescence assay
Heads up: the numbers are on a log10 scale; they represent IC50 in µM.

Solved cases below.
// query Quick one: give measured log10 IC50 for `CNc1cccc(CCNc2cccc(CCN(c3ccccn3)c3ccccn3)n2)n1`
// result 2.38

// query Let me know recorded log10 IC50 for `CNc1cccc(NCCc2cccc(NCCc3ccccn3)n2)n1` , thanks.
// result 1.40

// query Answer with the recorded log10 IC50 for the compound listed here: `CNc1cccc(CCNc2cccc(CCNc3ccccn3)n2)n1`
// result 2.45

// query Fill in reported log10 IC50 for this entry: `Nc1c(/N=N/c2ccc(-c3ccc(/N=N/c4cc(S(=O)(=O)O)c5ccccc5c4N)cc3)cc2)cc(S(=O)(=O)O)c2ccccc12`
// result 0.11

***
// query Give reported log10 IC50 value for `CNc1cccc(NCCCc2cccc(NCCCc3ccccn3)n2)n1`
// result 1.23

Data origin: ChEMBL document CHEMBL3813681
